experiment: gradient 5% acetonitrile 3 min, to 50% in 2 min, to 85% in 15 min, held 3 min, 100 µL/min; details: column: Zorbax Extend-C18 2.1 x 50 mm; eluents: water / acetonitrile, 0.1% formic acid
Classification by RP-LC retention time | ranges: low end (below 800 s), middle (800 s to below 1000 s), high end (1000 s or more)

Take a look at these entries with their results.
INSERT INTO assay_data (compound, group_label) VALUES
  ('COc1ccc(-c2nc(-c3cccc(-c4ccnn4C)c3)no2)cc1F', 'high end'),
  ('CCCc1nc2cccnc2n1C1CCN(C(=O)Nc2cccc(OC)c2)C1 (centres undefined)', 'low end'),
  ('Cc1cc(NC(=O)C(C)n2nc(-c3ccc(F)cc3)ccc2=O)on1 (centres undefined)', 'low end'),
  ('COC(=O)c1cc(S(=O)(=O)N2CCCC2C(=O)Nc2ccccc2F)cn1C (centres undefined)', 'middle'),
  ('COc1ccc(-c2ncc3c(n2)CCN(S(=O)(=O)c2cccc(C(F)(F)F)c2)C3)cc1', 'high end');

Then there is this compound:
**Query** Lab log: "CCOc1ccc(S(=O)(=O)N2CCN(c3cc(C)nc(NC4CCCCC4)n3)CC2)cc1" — assign RP-LC retention time category
**Result** middle
